Cited source for all entries: patent US20260008760A1

Molecular target: human DPP1 enzyme (Homo sapiens)
Sequence (P53634 25-463): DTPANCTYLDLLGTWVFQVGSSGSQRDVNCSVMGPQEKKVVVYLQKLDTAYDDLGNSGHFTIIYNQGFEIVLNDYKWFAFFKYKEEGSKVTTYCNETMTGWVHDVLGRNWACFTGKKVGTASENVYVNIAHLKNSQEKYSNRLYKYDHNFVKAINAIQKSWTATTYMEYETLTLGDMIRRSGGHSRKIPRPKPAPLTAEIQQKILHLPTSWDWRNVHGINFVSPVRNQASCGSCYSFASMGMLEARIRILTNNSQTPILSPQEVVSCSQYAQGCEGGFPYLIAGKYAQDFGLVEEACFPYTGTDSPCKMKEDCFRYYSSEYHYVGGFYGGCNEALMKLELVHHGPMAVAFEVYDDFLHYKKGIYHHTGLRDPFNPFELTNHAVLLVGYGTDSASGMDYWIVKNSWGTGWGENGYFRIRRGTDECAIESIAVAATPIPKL
Assay: Human DPP1 Enzyme Single-Point Percent Inhibition Testing (HL-60 lysate)
Assay type: biochemical
Parameters: A crude lysate of HL-60 cells (ATCC; Manassas, VA) was used as a source of human DPP1 enzyme; host or cells: HL-60 cells (crude lysate)
Conditions: final compound concentration of 10 nM, 400 μM H-Gly-Arg-AMC, n = 1
Entries and their inhibition at 0.01 µM values follow.

Form entry - test system: human DPP1 enzyme (Homo sapiens); read-out: inhibition at 0.01 µM; compound: COC1CNC[C@@H](C(=O)N[C@H](C#N)Cc2ccc(-c3ccc4cnn(C)c4c3)cc2F)OC1 (some centres unmarked) [Compound H13]
≥ 66.7%

Further cases:
Form field - read-out: inhibition at 0.01 µM; system: human DPP1 enzyme (Homo sapiens); submitted item: CO[C@H]1CCO[C@H](C(=O)N[C@H](C#N)Cc2ccc(-c3ccc4nnn(C)c4c3)cc2)CNC1 [Compound H18]
≤ 40%

// fetch human DPP1 enzyme (Homo sapiens) inhibition at 0.01 µM for N#C[C@H](Cc1ccc(-c2cnc3c(n2)CCCC3)cc1)NC(=O)[C@@H]1CNCCCCO1 [Compound A114]
≤ 40%

Provide value of inhibition at 0.01 µM for this record tested with human DPP1 enzyme (Homo sapiens): CO[C@@H]1CCNC[C@@H](C(=O)N[C@H](C#N)Cc2ccc(-c3ccc(S(=O)(=O)N4CCC4)cc3)cc2)OC1 [Compound F16]
≥ 66.7%
